Provide the reported IC50 of each item.
- runDescription: Inhibition of fMLP-OMe-induced chemotaxis in human neutrophils
- Assay type: functional
Respond with the bare value in nM.

The molecule listed as O=C(c1cnn2c1NC(c1ccccc1)C2)N1CCCC1 (configuration not stated) has a reported IC50 of 9000

The molecule listed as O=C(c1cnn2c1NC(c1ccccc1)C2)N1CCCCCC1 (configuration not stated) has a reported IC50 of 1.01

The molecule listed as O=C(O)c1cnn2c1NC(c1ccccc1)C2 (configuration not stated) has a reported IC50 of 1.16

The molecule listed as O=C(c1cnn2c1NC(c1ccccc1)C2)N1CCCCC1 (configuration not stated) has a reported IC50 of 1.48

The molecule listed as O=C(c1cnn2c1NC(c1ccccc1)C2)N1CCN(Cc2ccccc2)CC1 (configuration not stated) has a reported IC50 of 27

The molecule listed as O=C(NCc1ccccc1)c1cnn2c1NC(c1ccccc1)C2 (configuration not stated) has a reported IC50 of 10000

The molecule listed as c1ccc(C2Cn3nccc3N2)cc1 (configuration not stated) has a reported IC50 of 29

The molecule listed as NC(=O)c1cnn2c1NC(c1ccccc1)C2 (configuration not stated) has a reported IC50 of 3.67

The molecule listed as O=C(NC1CC1)c1cnn2c1NC(c1ccccc1)C2 (configuration not stated) has a reported IC50 of 0.48

The molecule listed as CC(C)(C)NC(=O)c1cnn2c1NC(c1ccccc1)C2 (configuration not stated) has a reported IC50 of 7.52

The molecule listed as O=C(c1cnn2c1NC(c1ccccc1)C2)N1CCOCC1 (configuration not stated) has a reported IC50 of 300

The molecule listed as CCOC(=O)c1cnn2c1NC(c1ccccc1)C2 (configuration not stated) has a reported IC50 of 2400
